- assayedTarget: T1, human ASGR-1 (on CHO-S cells) (human, UniProt P07306)
- T1 chain: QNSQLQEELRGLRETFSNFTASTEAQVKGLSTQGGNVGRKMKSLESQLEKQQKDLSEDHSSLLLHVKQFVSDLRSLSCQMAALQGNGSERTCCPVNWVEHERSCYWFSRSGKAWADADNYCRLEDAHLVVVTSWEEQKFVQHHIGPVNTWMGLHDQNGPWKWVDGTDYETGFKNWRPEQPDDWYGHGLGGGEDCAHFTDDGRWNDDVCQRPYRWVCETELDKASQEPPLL
- assayNotes: competition, FACS, GalNAc-PAA
quantityMeasured: pIC50
Notebook: values listed as pIC50 are -log10 of the concentration (mol/L).

Q: Entry under review: 194C10 (antibody, V domains shown) VH: QVQLQQWGAGLLKPSETLSLTCAVSGGSFRYYYWSWIRQPPGKGLEWFGEINHSGSTNYNPSLKSRVTISIDTSKNQFSLKLRSVTAADTAVYYCARDYGAFDIWGQGTMVTVSS VL: EIVLTQSPGTLSLSPGERATLSCRASPSVNSGYLAWYQQKPGQTPRLLIFGASSRATGIPDRFSASGSGADFTLTISRLEPEDFAVYFCQQYESSPWTFGQGTKVEIK . Reported pIC50?
A: 7.06
